Consider the following compounds; for each one, report its pIC50.
# STUDY SYSTEM: PI3 Kinase (p120γ) (h) (Homo sapiens, UniProt P48736)
# Construct: endogenous in cells
# Sequence (P48736 whole entry): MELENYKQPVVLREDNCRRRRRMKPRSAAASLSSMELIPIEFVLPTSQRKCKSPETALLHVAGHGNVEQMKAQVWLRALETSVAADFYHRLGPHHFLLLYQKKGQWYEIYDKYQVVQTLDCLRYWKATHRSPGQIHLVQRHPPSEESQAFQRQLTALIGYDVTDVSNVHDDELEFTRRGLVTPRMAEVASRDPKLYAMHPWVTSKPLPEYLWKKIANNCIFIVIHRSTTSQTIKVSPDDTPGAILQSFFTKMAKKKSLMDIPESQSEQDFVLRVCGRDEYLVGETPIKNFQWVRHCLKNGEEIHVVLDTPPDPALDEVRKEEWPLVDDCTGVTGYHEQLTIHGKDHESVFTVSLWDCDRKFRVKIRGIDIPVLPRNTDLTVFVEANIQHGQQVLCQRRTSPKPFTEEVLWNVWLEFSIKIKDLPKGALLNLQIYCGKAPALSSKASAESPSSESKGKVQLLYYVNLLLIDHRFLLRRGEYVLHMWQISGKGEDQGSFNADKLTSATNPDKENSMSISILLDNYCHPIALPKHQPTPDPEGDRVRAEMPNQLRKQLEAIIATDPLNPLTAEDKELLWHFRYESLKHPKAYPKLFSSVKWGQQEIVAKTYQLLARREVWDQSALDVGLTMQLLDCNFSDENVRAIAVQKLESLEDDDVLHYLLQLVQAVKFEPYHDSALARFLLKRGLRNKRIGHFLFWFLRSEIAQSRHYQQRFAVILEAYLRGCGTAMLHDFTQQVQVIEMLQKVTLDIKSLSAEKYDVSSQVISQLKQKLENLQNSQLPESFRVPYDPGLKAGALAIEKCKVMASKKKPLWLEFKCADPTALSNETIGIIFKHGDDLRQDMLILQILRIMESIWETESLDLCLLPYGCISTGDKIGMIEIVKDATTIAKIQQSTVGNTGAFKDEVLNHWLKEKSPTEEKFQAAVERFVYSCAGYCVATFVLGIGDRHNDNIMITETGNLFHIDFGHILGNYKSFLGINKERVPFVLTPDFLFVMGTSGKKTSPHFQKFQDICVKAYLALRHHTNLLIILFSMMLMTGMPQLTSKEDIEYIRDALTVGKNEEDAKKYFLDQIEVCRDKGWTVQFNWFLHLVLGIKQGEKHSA
# PROCEDURE DETAILS: Inhibition of phosphatidylinositol 3-kinase gamma (PI3K γ), pAkt Western blotting in C5a-stimulated RAW264.7 macrophages
# SETUP CONDITIONS: ATP=10 uM, sample concentration=100 nM
# Protocol: The stimulated cells were transferred in a 1.5 mL tube, followed by centrifugation at 3000 rpm for 1 minute. […] Protein was quantified by BCA (bicinchoninic acid) method and samples were prepared. […] The inhibition of phosphatidylinositol 3 kinase gamma (PI3K γ) by those compounds prepared in Examples 1˜98 was investigated by the following experiment. The inhibition activity of each compound was measured in the following conditions: ATP=10 uM, and sample concentration=100 nM. […]
pIC50: −log10 of the molar value.

Output pIC50 of `C[C@H](Nc1ncnc2[nH]cnc(=O)c12)c1cc2ccccc2nc1-c1ccccc1`
< 6.30

Output pIC50 of `C[C@H](Nc1nc(N)nc2[nH]cnc(=O)c12)c1nc2cccc(Cl)c2c(=O)n1-c1ccccc1`
6.30 to 8.00

Output pIC50 of `C[C@H](Nc1ncnc2[nH]ccc(=O)c12)c1nc2cccc(Cl)c2c(=O)n1Cc1ccccc1Cl`
< 6.30

Output pIC50 of `CCN1CNc2ncnc(N[C@@H](C)c3cc4cccc(Cl)c4c(=O)n3-c3ccccc3)c2C1=O`
6.30 to 8.00

Output pIC50 of `C[C@H](Nc1ncnc2[nH]cc(Cl)c(=O)c12)c1nc2cccc(Cl)c2c(=O)n1-c1ccccc1`
6.30 to 8.00

Output pIC50 of `C[C@H](Nc1nc(N)nc2[nH]cnc(=O)c12)c1nc2cccc(Cl)c2c(=O)n1-c1cccc(F)c1`
< 6.30

Output pIC50 of `O=c1nc[nH]c2ncnc(N3CCC[C@H]3c3nc4cccc(Cl)c4c(=O)n3-c3cccnc3)c12`
< 6.30

###

# STUDY SYSTEM: PI3 Kinase (p110δ/p85α) (h) (Homo sapiens)
# Construct: endogenous in cells
# Sequence (O00329 whole entry): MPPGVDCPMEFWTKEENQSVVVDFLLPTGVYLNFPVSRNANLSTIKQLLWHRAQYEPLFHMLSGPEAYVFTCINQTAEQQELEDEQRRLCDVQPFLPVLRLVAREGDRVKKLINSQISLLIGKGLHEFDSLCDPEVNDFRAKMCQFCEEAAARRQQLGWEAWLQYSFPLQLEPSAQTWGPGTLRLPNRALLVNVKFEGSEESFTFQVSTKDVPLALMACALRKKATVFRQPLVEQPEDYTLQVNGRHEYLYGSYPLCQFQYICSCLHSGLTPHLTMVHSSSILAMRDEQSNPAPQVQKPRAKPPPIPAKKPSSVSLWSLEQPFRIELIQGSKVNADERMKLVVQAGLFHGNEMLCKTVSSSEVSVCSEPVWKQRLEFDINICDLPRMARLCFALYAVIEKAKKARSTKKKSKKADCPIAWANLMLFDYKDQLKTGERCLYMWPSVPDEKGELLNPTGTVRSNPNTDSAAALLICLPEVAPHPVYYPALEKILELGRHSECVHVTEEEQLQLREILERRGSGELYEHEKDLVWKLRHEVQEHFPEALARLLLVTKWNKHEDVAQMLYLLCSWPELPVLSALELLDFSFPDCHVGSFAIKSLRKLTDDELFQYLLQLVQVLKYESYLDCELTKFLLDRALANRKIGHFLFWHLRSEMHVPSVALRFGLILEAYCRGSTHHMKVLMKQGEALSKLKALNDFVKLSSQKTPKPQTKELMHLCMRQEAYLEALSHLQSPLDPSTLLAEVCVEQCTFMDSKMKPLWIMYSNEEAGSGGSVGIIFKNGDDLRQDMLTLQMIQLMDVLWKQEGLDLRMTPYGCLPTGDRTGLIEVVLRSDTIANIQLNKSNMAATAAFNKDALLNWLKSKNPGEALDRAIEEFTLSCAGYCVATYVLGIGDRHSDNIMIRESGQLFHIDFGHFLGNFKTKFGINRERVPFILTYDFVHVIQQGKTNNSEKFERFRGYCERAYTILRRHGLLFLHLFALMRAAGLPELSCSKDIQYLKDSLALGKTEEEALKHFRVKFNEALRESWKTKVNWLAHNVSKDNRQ
# Sequence (P27986 whole entry partner): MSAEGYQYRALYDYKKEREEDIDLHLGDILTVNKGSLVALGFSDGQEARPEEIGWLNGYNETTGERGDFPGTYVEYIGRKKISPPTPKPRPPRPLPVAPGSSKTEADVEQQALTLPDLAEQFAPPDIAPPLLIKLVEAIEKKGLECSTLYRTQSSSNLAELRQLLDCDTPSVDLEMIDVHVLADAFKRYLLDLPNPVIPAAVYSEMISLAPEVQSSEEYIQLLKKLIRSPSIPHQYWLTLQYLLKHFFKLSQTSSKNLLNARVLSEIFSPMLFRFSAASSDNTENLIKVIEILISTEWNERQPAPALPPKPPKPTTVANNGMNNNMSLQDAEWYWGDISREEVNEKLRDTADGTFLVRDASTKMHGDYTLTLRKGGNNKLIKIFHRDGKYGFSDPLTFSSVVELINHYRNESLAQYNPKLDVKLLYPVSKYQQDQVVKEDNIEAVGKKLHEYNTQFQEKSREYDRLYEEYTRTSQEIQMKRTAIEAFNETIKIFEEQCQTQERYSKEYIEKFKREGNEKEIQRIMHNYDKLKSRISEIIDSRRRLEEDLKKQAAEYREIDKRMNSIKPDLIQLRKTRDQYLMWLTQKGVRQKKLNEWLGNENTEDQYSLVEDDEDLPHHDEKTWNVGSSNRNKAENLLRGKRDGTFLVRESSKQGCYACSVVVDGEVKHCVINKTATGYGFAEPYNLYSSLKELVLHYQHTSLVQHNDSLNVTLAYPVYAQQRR
# PROCEDURE DETAILS: Inhibition of phosphatidylinositol 3-kinase delta (PI3K δ), pAkt Western blotting in IgM-stimulated Raji cells
# SETUP CONDITIONS: ATP=10 uM, sample concentration=100 nM
pIC50: −log10 of the molar value.
Consider the following compounds; for each one, report its pIC50.

Output pIC50 of `C[C@H](Nc1ncnc2[nH]ccc(=O)c12)c1c(F)c2cccc(Cl)c2c(=O)n1-c1ccccc1`
> 8.00

Output pIC50 of CC(Nc1ncnc2[nH]ccc(=O)c12)c1nc2cccc(Cl)c2cc1-c1ccccn1 (centres unmarked)
> 8.00

Output pIC50 of `Nc1nc(N2CCC[C@H]2c2cc3cccc(Cl)c3c(=O)n2-c2ccccc2)c2c(=O)nc[nH]c2n1`
6.30 to 8.00

Output pIC50 of `CC[C@H](Nc1ncnc2c1C(=O)N(C(C)C)CN2)c1nc2cccc(F)c2c(=O)n1-c1ccccc1`
< 6.30

Output pIC50 of `CC[C@H](Nc1ncnc2[nH]ccc(=O)c12)c1nc2cccc(F)c2c(=O)n1-c1ccccc1`
> 8.00

Output pIC50 of `CN1CNc2ncnc(N3CCC[C@H]3c3cc4cccc(Cl)c4c(=O)n3-c3ccccc3)c2C1=O`
> 8.00

Output pIC50 of `C[C@H](Nc1ncnc2[nH]ccc(=O)c12)c1nc2ccc(F)cc2c(=O)n1-c1cccc(F)c1`
> 8.00

Output pIC50 of `O=c1nc[nH]c2ncnc(N3CCC[C@H]3c3nn4ccc(Cl)c4c(=O)n3-c3cccc(F)c3)c12`
< 6.30
